IC50 listing for selected compounds.
- Target system: UniProt Q9BY41
- Sequence (Q9BY41 whole entry): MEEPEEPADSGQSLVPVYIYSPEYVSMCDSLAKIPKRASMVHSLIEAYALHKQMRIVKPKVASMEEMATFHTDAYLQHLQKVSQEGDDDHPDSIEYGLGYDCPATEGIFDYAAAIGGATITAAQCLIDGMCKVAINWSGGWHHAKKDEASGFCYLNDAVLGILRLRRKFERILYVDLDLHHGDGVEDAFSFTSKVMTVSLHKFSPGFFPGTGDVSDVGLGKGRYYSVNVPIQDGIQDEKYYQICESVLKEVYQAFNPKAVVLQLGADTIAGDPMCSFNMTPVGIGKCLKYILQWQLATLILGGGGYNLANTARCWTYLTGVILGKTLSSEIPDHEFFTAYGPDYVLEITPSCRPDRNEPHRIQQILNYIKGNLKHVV
- Run description: HDAC8 inhibition assay (fluorogenic diacyl peptide)
- Type: biochemical
- Study conditions: average of two experiments; read-out: HDAC Isoform IC50 (μM) 8
Answer format: numeric, µM implied, no suffix.

As a guide, the following entries are already answered.
| Item smiles | Measured |
| --- | --- |
| COC[C@@H]1CCCN1Cc1ccc(C(=O)NO)cc1 | 1.82 |
| O=C(NO)c1ccc(Cn2ccc3ccccc32)cc1 | 0.417 |

Okay, next one:
[ask] Looking for the measured IC50 of O=C(NO)c1ccc(Cn2cc(Cc3ccccc3)c3ccccc32)cc1 , can you help?
[reply] 0.324
